B1: TRIM15 (parent)
chain: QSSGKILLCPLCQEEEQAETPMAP

# Variants of: B1
# Measurement Description: protein stability index of a GFP-peptide fusion (GPS, HEK-293T) (PSI 1-6); higher = more stable;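 also: lentivirally expressed fusions sorted by FACS into six bins by GFP to DsRed ratio, PSI derived from sequencing read proportions per bin multiplied by bin number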
# Condition Description: c terminus: a fixed tail appended
Listed variants paired with reported protein stability index
The answer should be written as a number, with no unit following it.

1. QSSGKCLLCPLCQEEEQAETPMAP; 3.94
2. QSSGKILLCPLCQEEEQAETPMAD; 3.79
3. QSSGKILLCPLCQEEENAETPMAP; 3.49

For reference, reported protein stability index for `QCSGKILLCPLCQEEEQAETPMAP` stands at 2.88

For reference, reported protein stability index for `QSSGKILLCPLCQEEEQHETPMAP` stands at 3.29

For reference, reported protein stability index for `ISSGKILLCPLCQEEEQAETPMAP` stands at 3.27

For reference, reported protein stability index for `QSSGKILLCPMCQEEEQAETPMAP` stands at 3.78

For reference, reported protein stability index for `QSSGKILLCPLCQEQEQAETPMAP` stands at 3.54
